Form field: % block (one value per entry).
Target: T1, cynomolgus CX3CR1 (cynomolgus, UniProt P49238 1-355 (human entry))
T1 construct: transiently expressed on HEK293T cells; also called cyCX3CR1; cyno CX3CR1
T1 chain: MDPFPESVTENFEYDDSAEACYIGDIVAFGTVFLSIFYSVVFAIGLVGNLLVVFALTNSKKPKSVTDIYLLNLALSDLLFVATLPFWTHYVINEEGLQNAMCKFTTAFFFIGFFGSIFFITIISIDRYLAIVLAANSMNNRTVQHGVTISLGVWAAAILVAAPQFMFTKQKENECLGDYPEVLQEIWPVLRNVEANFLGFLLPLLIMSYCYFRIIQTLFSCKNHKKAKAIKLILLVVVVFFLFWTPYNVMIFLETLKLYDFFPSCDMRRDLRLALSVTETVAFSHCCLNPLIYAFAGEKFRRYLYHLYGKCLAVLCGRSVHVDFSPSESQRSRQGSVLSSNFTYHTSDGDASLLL
Assay: A647-fractalkine competition FACS, HEK293T cynomolgus CX3CR1
Give the value, in units of %, as a plain number.

# binder, % block / %
data = [
    ("CX3CR1BIIPMP54H1 (VHH, also called 54H01; not shown: C-terminal c-myc and His6 tags) VHH: EVQLVESGGGSVQAGESLRLSCAASGTIFSSNAMAWYRQAPGKQRDLVAGINSVDITKYADSVKGRFTVSRDNAKNTVYLQMNSLKPEDTAVYYCTSDPRRGWNTRYWGQGTQVTVSS", 92),
]

Turning now to a further record.
Return % block for the following binder: CX3CR1BIIPMP54A7 (VHH, also called 54A07; not shown: C-terminal c-myc and His6 tags) VHH: EVQLVESGGGSVQAGESLRLSCAASGTIFSSNAMAWYRQAPGKQRDLVAGINSVDITKYADSVKGRFTISRDNAKNTVYLQMNSLKPEDTAVYYCTSDPRRGWNTRYWGQGTQVTVSS
69
